test name: yeast display, Sf9 membrane polyspecificity reagent, FACS + sequencing; frameworks hold sequencing errors
observable: polyreactivity (PSR sort gate)

[
  {
    "entry sequence": "QVQLVESGGGLVQAGGSLRLSCAASGSIFVGYAMGWYRQAPGKERELVAAITFRGGSTYYADSVKGRFTISRDNAKNTVYLQMNSLKPEDTAVYYCNRVVRLRRPAQYNYWGQGTQVTVSS",
    "observable": "polyreactivity (PSR sort gate)",
    "result": "high polyreactivity"
  },
  {
    "entry sequence": "QVQLEDSGGGLVQAGGSLGLSCAASGITFSVYDMGWYRQAPGKERQLVAAISWSGGSTYYADSVKGRFTISRDNAKNTVFLQMNSLKPDDTAVYYCAAEVDYWYELYDYWGLGTQVTVSS",
    "observable": "polyreactivity (PSR sort gate)",
    "result": "high polyreactivity"
  }
]
